Assignment: determine reported IC50 for the given molecules.
- tested.target: CDK8 (Homo sapiens)
- Sequence (P49336 whole entry, species assumed): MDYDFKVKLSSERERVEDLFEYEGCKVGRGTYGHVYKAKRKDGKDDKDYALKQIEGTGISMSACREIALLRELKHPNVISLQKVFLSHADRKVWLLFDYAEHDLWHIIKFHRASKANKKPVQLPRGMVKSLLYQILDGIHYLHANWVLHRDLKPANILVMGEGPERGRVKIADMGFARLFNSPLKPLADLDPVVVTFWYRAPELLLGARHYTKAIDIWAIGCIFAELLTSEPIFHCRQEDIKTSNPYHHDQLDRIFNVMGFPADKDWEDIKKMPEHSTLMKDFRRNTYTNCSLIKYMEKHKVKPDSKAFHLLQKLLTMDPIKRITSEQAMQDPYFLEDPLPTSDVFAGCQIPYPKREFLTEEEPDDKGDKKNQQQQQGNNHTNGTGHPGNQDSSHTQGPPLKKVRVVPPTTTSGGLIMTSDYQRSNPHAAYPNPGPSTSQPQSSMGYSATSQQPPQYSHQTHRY
- Sequence (P24863 whole entry partner, species assumed): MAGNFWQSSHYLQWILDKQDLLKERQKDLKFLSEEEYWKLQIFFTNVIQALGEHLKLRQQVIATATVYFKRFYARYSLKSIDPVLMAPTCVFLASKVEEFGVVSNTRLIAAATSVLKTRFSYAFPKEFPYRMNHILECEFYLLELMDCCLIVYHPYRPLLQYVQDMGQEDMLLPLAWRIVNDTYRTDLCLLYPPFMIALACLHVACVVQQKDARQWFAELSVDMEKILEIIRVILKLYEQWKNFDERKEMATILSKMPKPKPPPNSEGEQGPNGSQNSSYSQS
- assay.comment: In vitro kinase assay ([γ-33P]-ATP)
- Type: biochemical
- protocol.conditions: ATP at apparent Km of the kinase

Q: Entry Cn1nc(NC(=O)CNc2ccc(-c3cnc4cnccn34)cc2)cc1C(F)(F)F has what IC50?
Ans: < 500 nM

Q: Sample Cc1ccc(NC(=O)CNc2ccc(-c3cnc4cnccn34)cc2)cc1C(F)(F)F — what was its IC50?
Ans: < 500 nM

Q: Item Cn1nc(NC(=O)COc2ccc(-c3cnc4cnccn34)cn2)cc1C(F)(F)F has what recorded IC50?
Ans: < 500 nM

Q: Given the molecule CC(Oc1ccc(-c2cnc3cnccn23)cn1)C(=O)Nc1cc(C(F)(F)F)c(Cl)cn1 (stereo not shown) , what is its reported IC50?
Ans: 500 to 5000 nM

Q: So what's the measured IC50 for this one? Cn1nc(NC(=O)COc2ccc(-c3cnn4cccnc34)cc2)cc1C(F)(F)F
Ans: < 500 nM

Q: Param item = Cc1ccc(NC(=O)c2ccc(Nc3cnc4cnccn34)cc2)cc1C(F)(F)F ; retrieve measured IC50.
Ans: 500 to 5000 nM

Q: What measured IC50 goes with O=C(Nc1cc(C(F)(F)F)c(Cl)cn1)C1(Oc2ccc(-c3cnc4cnccn34)cn2)CC1 ?
Ans: > 5000 nM

Q: Would you mind telling me what IC50 value was observed for O=C(CNc1ccc(-c2cnc3cnccn23)cc1)Nc1cc(C(F)(F)F)c(Cl)cn1 ?
Ans: < 500 nM

Q: Quick one: IC50 of Cn1nc(NC(=O)CNc2ccc(-c3cnc4cnccn34)c(F)c2)cc1C(F)(F)F ?
Ans: < 500 nM

Q: Which IC50 value belongs to Cn1nc(NC(=O)COc2ccc(-c3cnc4ccccn34)cn2)cc1C(F)(F)F ?
Ans: < 500 nM
